Where these numbers come from: patent US7713950B2

# System: Pasteurella multocida
# assay_name: Broth microdilution susceptibility testing (MIC), Pasteurella multocida
# Type: cell-based
# condition_details: broth microdilution (NCCLS, 2002), read-out: Minimal inhibitory concentration against Pasteurella multocida
# Method: The list is not intended, nor should it be construed, to limit the scope of this invention in any manner whatsoever. Compounds were tested for antimicrobial activity against several bacterial stains using standard broth microdilution susceptibility testing methodology (NCCLS, 2002). […] The enhanced activity of Compound 1 is especially noteworthy. NCCLS. 2002. […]
measurement_name: MIC (µg/mL)

[[record]]
compound = "O=C(N[C@H](CF)[C@H](O)c1ccc(S(=O)(=O)CF)cc1)C(Cl)Br (stereo partly drawn) [Compound 10]"
measurement_name = "MIC"
result_value = 0.25

[[record]]
compound = "N#CCC(=O)N[C@H](CF)[C@H](O)c1ccc(S(=O)(=O)CF)cc1 [Compound 4]"
measurement_name = "MIC"
result_value = 1

[[record]]
compound = "C[C@@H](N)C(=O)N[C@H](CF)[C@H](O)c1ccc(S(=O)(=O)CF)cc1 [Compound 6]"
measurement_name = "MIC"
result_value = 1

[[record]]
compound = "CS(=O)(=O)c1ccc([C@@H](O)[C@@H](CO)NC(=O)C(Cl)Cl)cc1 [Thiamphenicol, reference compound]"
measurement_name = "MIC"
result_value = 0.25

[[record]]
compound = "[N-]=[N+]=NCC(=O)N[C@H](CF)[C@H](O)c1ccc(S(=O)(=O)CF)cc1 [Compound 5]"
measurement_name = "MIC"
result_value = 0.25

[[record]]
compound = "O=C(N[C@H](CF)[C@H](O)c1ccc(S(=O)(=O)C(F)F)cc1)C(Cl)Cl [Compound 8]"
measurement_name = "MIC"
result_value = 0.125

[[record]]
compound = "CC(=O)N[C@H](CF)[C@H](O)c1ccc(S(=O)(=O)CF)cc1 [Compound 12]"
measurement_name = "MIC"
result_value = 1

[[record]]
compound = "NCC(=O)N[C@H](CF)[C@H](O)c1ccc(S(=O)(=O)CF)cc1 [Compound 7]"
measurement_name = "MIC"
result_value = 1

[[record]]
compound = "O=C(N[C@H](CF)[C@H](O)c1ccc(S(=O)(=O)CF)cc1)C(F)Cl (stereo partly drawn) [Compound 11]"
measurement_name = "MIC"
result_value = 0.25

[[record]]
compound = "O=C(N[C@H](CF)[C@H](O)c1ccc(S(=O)(=O)C(Cl)Cl)cc1)C(Cl)Cl [Compound 3]"
measurement_name = "MIC"
result_value = 0.5

[[record]]
compound = "O=C(N[C@H](CO)[C@H](O)c1ccc([N+](=O)[O-])cc1)C(Cl)Cl [Chloramphenicol, reference compound]"
measurement_name = "MIC"
result_value = 0.25

[[record]]
compound = "O=C(N[C@H](CF)[C@H](O)c1ccc(S(=O)(=O)CF)cc1)C(F)F [Compound 9]"
measurement_name = "MIC"
result_value = 0.25

[[record]]
compound = "CS(=O)(=O)c1ccc([C@@H](O)[C@@H](CF)NC(=O)C(Cl)Cl)cc1 [Florfenicol, reference compound]"
measurement_name = "MIC"
result_value = 0.25

[[record]]
compound = "O=C(N[C@H](CF)[C@H](O)c1ccc(S(=O)(=O)CF)cc1)C(F)(F)F [Compound 2]"
measurement_name = "MIC"
result_value = 1

[[record]]
compound = "O=C(N[C@H](CF)[C@H](O)c1ccc(S(=O)(=O)CF)cc1)C(Cl)Cl [Compound 1]"
measurement_name = "MIC"
result_value = 0.06

